# SYSTEM TESTED: SARS-CoV-2 NSP3 macrodomain (Mac1) (Severe acute respiratory syndrome coronavirus 2, UniProt P0DTD1)
# Assay type: binding
# CONDITION INFO: crystal soak 10 mM; DMSO background map; event 1
MEASUREMENT TYPE: 1-BDC (PanDDA run, DMSO background map)

CC1(C)CCC(O)(CNc2ncnc3[nH]ccc23)CC1 [AVI-4310] : 0.14
C[C@@H]1CCN(c2ncnc3[nH]ccc23)[C@H](CO)C1 [AVI-4064] : 0.19
CC1CCCC(O)(CNc2ncnc3[nH]ccc23)C1 (stereo not shown) [AVI-4307] : 0.17
OC1(CNc2ncnc3[nH]ccc23)CCC(F)(F)CC1 [AVI-4308] : 0.15
Cc1c[nH]c2ncnc(NCC3(O)CCC(C)CC3)c12 (stereo not shown) [AVI-4331] : 0.27
OC1(CNc2ncnc3[nH]ccc23)CCCOC1 (stereo not shown) [AVI-4311] : 0.25
OC1(CNc2ncnc3[nH]ccc23)CCCC(C(F)(F)F)C1 (stereo not shown) [AVI-4309] : 0.21

---

# METHOD SUMMARY: Kinetic solubility
# CONDITION INFO: phosphate-buffered saline pH 7.4; triplicate
MEASUREMENT TYPE: Mean solubility

C[C@H]1CCCN(c2ncnc3[nH]ccc23)[C@H]1CO [AVI-3716] : 523 µM
O=C1CCCN1Nc1ncnc2[nH]c3cc(F)ccc3c12 [AVI-219, reference compound] : 127 µM
CC(C)(O)[C@H]1CCCN1c1ncnc2[nH]ccc12 [AVI-607] : 518 µM
O=C(Nc1ccc(C(=O)N[C@H]2c3cccc(O)c3C[C@H]2C(=O)O)cc1)NC1CC1 [AVI-92, reference compound] : 524 µM
CC(c1ccccc1)C(CO)Nc1ncnc2[nH]ccc12 (centres unmarked) [AVI-3669] : 529 µM

---

# SYSTEM TESTED: SARS-CoV-2 NSP3 macrodomain (Mac1) (Severe acute respiratory syndrome coronavirus 2, UniProt P0DTD1)
# METHOD SUMMARY: biochemical
# Format: binding
# CONDITION INFO: HTRF binding curve, SARS-CoV-2 Mac1
Reported Hill slope values for a set of compounds
MEASUREMENT TYPE: Hill slope

CCC(O)[C@H]1CCCN1c1ncnc2[nH]ccc12 (stereo partly shown) : 1.3
CC(C)(O)[C@H]1CCCN1c1ncnc2[nH]ccc12 : 1.5
OC1(CNc2ncnc3[nH]ccc23)CCCSC1 (stereo not shown) : 1.3
O=S1(=O)CCCC(O)(CNc2ncnc3[nH]ccc23)C1 (stereo not shown) : 1.2
OC1(CNc2ncnc3[nH]ccc23)CCSCC1 : 1.2
CCC(C)(CO)Nc1ncnc2[nH]ccc12 (stereo not shown) : 1.2
OC1(CNc2ncnc3[nH]ccc23)CCCC(C(F)(F)F)C1 (stereo not shown) : 1.4
CC(O)C1CCCN1c1ncnc2[nH]ccc12 (stereo not shown) : 1.1
O=C(O)C(F)(F)F.OC[C@H](Cc1ccc(O)cc1)Nc1ncnc2[nH]ccc12 : 1.1
CC1(C)CCN(c2ncnc3[nH]ccc23)C(CO)C1 (stereo not shown) : 1.2

---

# SYSTEM TESTED: SARS-CoV-2 NSP3 macrodomain (Mac1) (Severe acute respiratory syndrome coronavirus 2)
# Assay type: binding
# CONDITION INFO: occupancy estimate from PanDDA
MEASUREMENT TYPE: 2*(1-BDC) (%)

OCC(Cc1cccs1)Nc1ncnc2[nH]ccc12 (stereo not shown) : 42
OCC1CC2(CCC2)CN1c1ncnc2[nH]ccc12 (stereo not shown) : 48
CC(C)(O)[C@H]1CCCN1c1ncnc2[nH]ccc12 : 88
CCC(C)(CO)Nc1ncnc2[nH]ccc12 (stereo not shown) : 32
O=C(O)C(F)(F)F.O[C@H]1CCC[C@@H]1Nc1ncnc2[nH]ccc12 : 22
C#CCC(CO)Nc1ncnc2[nH]ccc12 (stereo not shown) : 36
O=C(O)C1CCCN1S(=O)(=O)c1cccc2nsnc12 (stereo not shown) : 40
OCC1CC=CCN1c1ncnc2[nH]ccc12 (stereo not shown) : 32
OCC1CC2(CCCC2)CN1c1ncnc2[nH]ccc12 (stereo not shown) : 64
C[C@H]1CC[C@H](CO)N(c2ncnc3[nH]ccc23)C1 : 32
CCC(Nc1ncnc2[nH]ccc12)C(C)(C)O (stereo not shown) : 28
CC1(C)CCN(c2ncnc3[nH]ccc23)C(CO)C1 (stereo not shown) : 46
Cn1cc(CC(CO)Nc2ncnc3[nH]ccc23)cn1 (stereo not shown) : 30
OCC(CC(F)(F)F)Nc1ncnc2[nH]ccc12 (stereo not shown) : 46
OC1(CNc2ncnc3[nH]ccc23)COC2CC1C2 (stereo not shown) : 38
OCC1CCCN1c1ncnc2[nH]ccc12 (stereo not shown) : 50
Cc1c(C)n(Cc2ccccc2)c2ncnc(N)c12 : 16
OCCC(CO)Nc1ncnc2[nH]ccc12 (stereo not shown) : 50
Cc1sc2ncnc(Sc3ccccc3C(=O)O)c2c1C : 30
O[C@@H]1CN(c2ncnc3[nH]ccc23)C[C@H]1F : 40
CC1CC(C(=O)O)CCN1C(=O)c1ccc2c(c1)OCC(=O)N2 (stereo not shown) : 26
CNc1ccc(NS(=O)(=O)c2cc3cccc(C)c3s2)cn1 : 52
